compounds and their reported half-life at 1 µM
Experiment: Metabolic stability in human liver microsomes assessed as half life at 1 uM by LC/MS/MS analysis
Type: ADME, Microsome
# value in min; strip the unit string

Solved cases below.
{"SAMPLE SMILES": "Nc1ccc(-c2cn([C@H]3CC[C@@H](N)CC3)c3ncnc(N)c23)cc1F", "half-life at 1 µM, min": 69.3}
{"SAMPLE SMILES": "COc1ccc(-c2cn([C@H]3CC[C@@H](N)CC3)c3ncnc(N)c23)cc1", "half-life at 1 µM, min": 108}

Input: Which half-life at 1 µM reading was recorded for the compound Cc1cccc(-c2cn([C@H]3CC[C@@H](N)CC3)c3ncnc(N)c23)c1 ?
Output: 23.7

Input: How about this compound: Cc1ccc(-c2cn([C@H]3CC[C@@H](N)CC3)c3ncnc(N)c23)cc1
Output: 27.4

Input: How about this compound: Cc1ccc(-c2nn(C(C)(C)CNC(=O)c3ccncc3)c3ncnc(N)c23)cc1
Output: 33.8

Input: How about this compound: C=CCN[C@H]1CC[C@@H](n2cc(-c3ccc(OC)cc3)c3c(N)ncnc32)CC1
Output: 6.3

Input: How about this compound: Cc1ccc(-c2cn([C@H]3CC[C@@H](N)CC3)c3ncnc(N)c23)cc1C
Output: 22.4

====

Molecular target: Receptor-interacting serine/threonine-protein kinase 1 (Homo sapiens)
Sequence (Q13546 whole entry): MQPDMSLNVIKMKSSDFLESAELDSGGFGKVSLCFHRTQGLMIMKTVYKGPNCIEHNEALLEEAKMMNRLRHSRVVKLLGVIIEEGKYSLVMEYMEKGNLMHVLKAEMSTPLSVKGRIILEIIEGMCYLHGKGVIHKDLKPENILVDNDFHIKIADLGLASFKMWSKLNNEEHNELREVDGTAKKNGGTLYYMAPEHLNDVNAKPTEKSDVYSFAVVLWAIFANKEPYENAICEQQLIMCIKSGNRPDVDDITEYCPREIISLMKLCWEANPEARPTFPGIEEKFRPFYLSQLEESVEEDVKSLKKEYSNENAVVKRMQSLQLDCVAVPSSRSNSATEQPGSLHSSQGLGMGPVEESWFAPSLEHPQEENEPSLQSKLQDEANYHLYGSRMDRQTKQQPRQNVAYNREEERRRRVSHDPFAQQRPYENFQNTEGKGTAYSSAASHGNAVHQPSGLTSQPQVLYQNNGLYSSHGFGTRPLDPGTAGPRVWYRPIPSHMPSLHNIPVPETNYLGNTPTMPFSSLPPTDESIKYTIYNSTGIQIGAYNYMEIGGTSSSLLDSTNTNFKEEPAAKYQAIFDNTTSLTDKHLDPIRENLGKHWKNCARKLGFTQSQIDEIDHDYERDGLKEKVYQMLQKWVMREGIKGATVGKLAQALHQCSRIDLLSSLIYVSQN
Assay: Inhibition of human RIPK1 assessed as active kinase incubated for 120 mins in presence of [gamma33P]ATP at 1000 nM by scintillation counting based radiometry assay relative to control
Set-up: scale not given: the % may be the effect or the level left
MEASUREMENT LABEL: Activity (%)
# value in %; strip the unit string

Solved cases below.
{"SAMPLE SMILES": "Nc1cccc(-c2cn([C@H]3CC[C@@H](N)CC3)c3ncnc(N)c23)c1", "Activity [%]": 98}
{"SAMPLE SMILES": "Nc1ncnc2c1c(-c1ccccc1)cn2[C@H]1CC[C@@H](N)CC1", "Activity [%]": 104}

Input: Which Activity reading was recorded for the molecule COc1ccc(-c2cn([C@H]3CC[C@@H](NC(C)=O)CC3)c3ncnc(N)c23)cc1 ?
Output: 80

Input: How about this molecule: Nc1ccc(-c2cn([C@H]3CC[C@@H](N)CC3)c3ncnc(N)c23)cc1
Output: 100

Input: How about this molecule: Cc1ccc(-c2cn([C@H]3CC[C@@H](N)CC3)c3ncnc(N)c23)cc1
Output: 114

Input: How about this molecule: COc1ccc(-c2cn([C@H]3CC[C@@H](NCc4cccc(OC(F)(F)F)c4)CC3)c3ncnc(N)c23)cc1
Output: 105

Input: How about this molecule: CCc1ccc(-c2cn([C@H]3CC[C@@H](N)CC3)c3ncnc(N)c23)cc1
Output: 97

Input: How about this molecule: Nc1ncnc2c1c(-c1cc(F)cc(F)c1)cn2[C@H]1CC[C@@H](N)CC1
Output: 114

Input: How about this molecule: CC(C)c1ccc(-c2cn([C@H]3CC[C@@H](N)CC3)c3ncnc(N)c23)cc1
Output: 95

====

Target: Receptor-interacting serine/threonine-protein kinase 1 (Homo sapiens)
Assay: Inhibition of human RIPK1 by kinase assay
pIC50: −log10 of the molar value.
MEASUREMENT LABEL: pIC50

Input: Which pIC50 reading was recorded for the molecule Cc1ccc(-c2cn([C@H]3CC[C@@H](N)CC3)c3ncnc(N)c23)c(F)c1 ?
Output: < 4.52

====

Test: Cmax in Balb/C mouse at 10 mg/kg, po measured upto 48 hrs by LC-MS/MS analysis
Assay type: ADME, organism-based
Set-up: dose 10 mg/kg, time < 48 hrs, route po
Conditions: in vivo
MEASUREMENT LABEL: Cmax
Answer with the value and then the unit.

Input: Which Cmax reading was recorded for the molecule Cc1ccc(-c2cn([C@H]3CC[C@@H](N)CC3)c3ncnc(N)c23)c(F)c1 ?
Output: 68.1 ng/mL

====

compounds and their reported Activity
Molecular target: Receptor-type tyrosine-protein kinase FLT3 (Homo sapiens)
Experiment: Inhibition of human Flt3 using EAIYAAPFAKKK peptide substrate assessed as active kinase incubated for 40 mins in presence of [gamma33P]ATP at 1000 nM by scintillation counting based radiometry assay relative to control
Parameters: scale not given: the % may be the effect or the level left
# value in %; strip the unit string

{"COMPOUND": "COc1ccc(-c2cn([C@H]3CC[C@@H](NC(=O)C(C)Cl)CC3)c3ncnc(N)c23)cc1 (some centres undefined)", "TGT": "Receptor-type tyrosine-protein kinase FLT3 (Homo sapiens)", "MEASUREMENT LABEL": "Activity", "ENDPOINT UNIT": "%", "NUMERIC RESULT": 63}
{"COMPOUND": "COc1ccc(-c2cn([C@H]3CC[C@@H](NC(=O)c4cc(OC)c(OC)c(OC)c4)CC3)c3ncnc(N)c23)cc1", "TGT": "Receptor-type tyrosine-protein kinase FLT3 (Homo sapiens)", "MEASUREMENT LABEL": "Activity", "ENDPOINT UNIT": "%", "NUMERIC RESULT": 85}
{"COMPOUND": "COc1ccc(-c2cn([C@H]3CC[C@@H](NCC#N)CC3)c3ncnc(N)c23)cc1", "TGT": "Receptor-type tyrosine-protein kinase FLT3 (Homo sapiens)", "MEASUREMENT LABEL": "Activity", "ENDPOINT UNIT": "%", "NUMERIC RESULT": 46}

# context switch: different compound, same Activity
Input: Which Activity reading was recorded for the compound COc1ccc(-c2cn([C@H]3CC[C@@H](NC(=O)C(C)(C)C)CC3)c3ncnc(N)c23)cc1 ?
Output: 47

====

Molecular target: Receptor-interacting serine/threonine-protein kinase 1 (Homo sapiens) (UniProt Q13546)
Sequence (Q13546 whole entry): as above
Test: Inhibition of human RIPK1 assessed as active kinase incubated for 120 mins in presence of [gamma33P]ATP at 1000 nM by scintillation counting based radiometry assay relative to control
Set-up: scale not given: the % may be the effect or the level left
compounds and their reported Activity
# value in %; strip the unit string

Solved cases below.
{"COMPOUND": "COc1ccc(-c2cn([C@H]3CC[C@@H](NC(=O)C(C)Cl)CC3)c3ncnc(N)c23)cc1 (stereo not given in full)", "ENDPOINT UNIT": "%", "NUMERIC RESULT": 82}
{"COMPOUND": "CC(C)Cc1ccc(-c2cn([C@H]3CC[C@@H](N)CC3)c3ncnc(N)c23)cc1", "ENDPOINT UNIT": "%", "NUMERIC RESULT": 117}
{"COMPOUND": "Nc1ncnc2c1c(-c1ccsc1)cn2[C@H]1CC[C@@H](N)CC1", "ENDPOINT UNIT": "%", "NUMERIC RESULT": 99}
{"COMPOUND": "COc1ccc(-c2cn([C@H]3CC[C@@H](N)CC3)c3ncnc(N)c23)cc1", "ENDPOINT UNIT": "%", "NUMERIC RESULT": 97}
{"COMPOUND": "CCOc1ccc(-c2cn([C@H]3CC[C@@H](N)CC3)c3ncnc(N)c23)cc1", "ENDPOINT UNIT": "%", "NUMERIC RESULT": 98}
{"COMPOUND": "Nc1ncnc2c1c(-c1cccc(F)c1)cn2[C@H]1CC[C@@H](N)CC1", "ENDPOINT UNIT": "%", "NUMERIC RESULT": 115}
{"COMPOUND": "CC(C)(C)c1ccc(-c2cn([C@H]3CC[C@@H](N)CC3)c3ncnc(N)c23)cc1", "ENDPOINT UNIT": "%", "NUMERIC RESULT": 93}
{"COMPOUND": "Cc1ccccc1-c1cn([C@H]2CC[C@@H](N)CC2)c2ncnc(N)c12", "ENDPOINT UNIT": "%", "NUMERIC RESULT": 99}

Input: Which Activity reading was recorded for the compound COc1ccc(-c2cn([C@H]3CC[C@@H](NCC#N)CC3)c3ncnc(N)c23)cc1 ?
Output: 99

Input: How about this compound: Cc1cccc(-c2cn([C@H]3CC[C@@H](N)CC3)c3ncnc(N)c23)c1
Output: 105

====

Molecular target: Receptor-type tyrosine-protein kinase FLT3 (Homo sapiens)
Sequence (P36888 whole entry): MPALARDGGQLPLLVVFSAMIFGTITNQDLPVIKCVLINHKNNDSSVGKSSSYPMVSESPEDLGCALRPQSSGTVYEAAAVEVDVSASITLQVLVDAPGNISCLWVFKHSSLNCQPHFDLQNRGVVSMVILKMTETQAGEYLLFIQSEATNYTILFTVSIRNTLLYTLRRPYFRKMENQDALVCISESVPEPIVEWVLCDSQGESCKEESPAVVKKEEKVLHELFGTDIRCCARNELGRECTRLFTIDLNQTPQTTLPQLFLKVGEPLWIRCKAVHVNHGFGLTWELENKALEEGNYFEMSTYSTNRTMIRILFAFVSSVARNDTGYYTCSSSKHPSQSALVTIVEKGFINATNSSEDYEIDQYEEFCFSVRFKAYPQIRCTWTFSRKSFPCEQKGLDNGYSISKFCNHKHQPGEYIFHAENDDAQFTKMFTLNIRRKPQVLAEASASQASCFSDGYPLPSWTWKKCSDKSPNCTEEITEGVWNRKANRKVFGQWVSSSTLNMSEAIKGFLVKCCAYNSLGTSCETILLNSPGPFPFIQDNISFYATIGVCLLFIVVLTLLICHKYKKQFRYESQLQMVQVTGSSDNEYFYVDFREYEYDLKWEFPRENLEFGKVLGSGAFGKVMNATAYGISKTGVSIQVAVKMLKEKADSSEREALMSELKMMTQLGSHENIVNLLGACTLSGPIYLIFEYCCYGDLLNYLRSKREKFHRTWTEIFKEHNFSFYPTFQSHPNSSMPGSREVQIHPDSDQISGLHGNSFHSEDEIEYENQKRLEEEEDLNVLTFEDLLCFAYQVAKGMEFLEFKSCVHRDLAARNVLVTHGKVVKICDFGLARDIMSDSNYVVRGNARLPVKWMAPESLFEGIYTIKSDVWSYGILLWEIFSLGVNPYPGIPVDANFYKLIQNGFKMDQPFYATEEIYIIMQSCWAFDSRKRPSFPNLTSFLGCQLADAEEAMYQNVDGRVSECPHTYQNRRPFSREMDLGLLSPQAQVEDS
MEASUREMENT LABEL: IC50 (µM)
# value in µM; strip the unit string

Input: Which IC50 reading was recorded for the compound Cc1ccc(-c2cn([C@H]3CC[C@@H](N)CC3)c3ncnc(N)c23)c(F)c1 ?
Output: 4.79
